Biological target: Muscarinic acetylcholine receptor M2 (Rattus norvegicus, UniProt P10980)
Sequence (P10980 whole entry): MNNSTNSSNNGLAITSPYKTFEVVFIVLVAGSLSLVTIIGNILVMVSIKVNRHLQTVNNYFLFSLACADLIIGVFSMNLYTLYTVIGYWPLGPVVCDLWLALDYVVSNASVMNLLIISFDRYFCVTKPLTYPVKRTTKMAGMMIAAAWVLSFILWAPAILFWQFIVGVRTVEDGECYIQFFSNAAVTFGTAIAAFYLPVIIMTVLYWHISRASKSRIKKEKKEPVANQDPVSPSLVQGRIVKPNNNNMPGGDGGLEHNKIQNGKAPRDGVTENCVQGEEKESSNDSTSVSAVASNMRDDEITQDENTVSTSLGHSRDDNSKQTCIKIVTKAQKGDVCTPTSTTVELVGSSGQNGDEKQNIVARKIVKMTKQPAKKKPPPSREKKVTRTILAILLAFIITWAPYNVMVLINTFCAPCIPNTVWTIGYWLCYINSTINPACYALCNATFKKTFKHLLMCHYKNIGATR
Property: Ki; scope: individual molecules
Respond with the bare value in nM.

These recorded examples may help you get a feel for the data.
{"columns": ["molecule", "experimental_system", "unit_info", "Ki"],
 "data": [
  ["O=C(O[C@H]1CN2CCC1CC2)N1CCc2ccccc2[C@@H]1c1ccccc1", "Muscarinic acetylcholine receptor M2 (Rattus norvegicus, UniProt P10980)", "nM", 120],
  ["O=C(O[C@H]1CN2CCC1CC2)N1Cc2ccccc2C1c1ccccc1 (some centres not stated)", "Muscarinic acetylcholine receptor M2 (Rattus norvegicus, UniProt P10980)", "nM", 440],
  ["O=C(O[C@H]1CN2CCC1CC2)N1CCc2ccccc2C1c1ccsc1 (single isomer, unassigned; 12a)", "Muscarinic acetylcholine receptor M2 (Rattus norvegicus, UniProt P10980)", "nM", 15]
]}

**Q:** Give Ki only, for O=C(NC(c1ccccc1)c1ccccc1)OC1CN2CCC1CC2 (configuration not stated) , using Muscarinic acetylcholine receptor M2 (Rattus norvegicus, UniProt P10980) data.
**A:** 6.8

**Q:** Provide Ki, tested on Muscarinic acetylcholine receptor M2 (Rattus norvegicus, UniProt P10980), for O=C(O[C@@H]1CN2CCC1CC2)N1CCc2ccccc2[C@@H]1c1ccccc1 .
**A:** 3500

**Q:** Would you please give the reported Ki of O=C(O[C@H]1CN2CCC1CC2)N1CCc2ccccc2C1c1ccccc1 (some centres not stated) with Muscarinic acetylcholine receptor M2 (Rattus norvegicus, UniProt P10980)?
**A:** 28

**Q:** Specify the recorded Ki for O=C(O[C@H]1CN2CCC1CC2)N1CCc2ccccc2[C@H]1c1ccccc1 , system: Muscarinic acetylcholine receptor M2 (Rattus norvegicus, UniProt P10980).
**A:** 8.7

Origin of values: ChEMBL document CHEMBL1140447
